Molecular target: MMP-13 catalytic domain (MMP-13CD) (Homo sapiens)
Construct: The catalytic domain of the MMP-13 enzyme, namely matrix metalloproteinase-13 catalytic domain (“MMP-13CD”)
Assay: Fluorigenic peptide-1 substrate based assay, MMP-13CD, with/without AcNHOH
Assay type: biochemical
Conditions: IC50 with AcNHOH divided by IC50 without
The following compounds are shown together with reported IC50 Ratio (±) values.
Response field accepts a number only; no unit should be typed.

Reference set (3 entries):
>>> recorded_number("COc1ccc(NC(=O)Nc2ccc3nc(C)cc(N)c3c2)cc1")
0.56
>>> recorded_number("O=C(NC(=S)NCc1cc(-c2ccccc2)no1)c1ccccc1")
0.08
>>> recorded_number("CCOC(=O)/C=C/c1ccc(-n2ccnc2)cc1")
0.82

Okay, next one:
## Task What is its IC50 Ratio (±) for MMP-13 catalytic domain (MMP-13CD) (Homo sapiens)? Entry: COc1ccc(C(=O)NCc2cccnc2)cc1C(=O)NCc1cccnc1
## Result 0.41

---

Target: MMP-2 (Homo sapiens, UniProt P08253)
Sequence (P08253 110-660): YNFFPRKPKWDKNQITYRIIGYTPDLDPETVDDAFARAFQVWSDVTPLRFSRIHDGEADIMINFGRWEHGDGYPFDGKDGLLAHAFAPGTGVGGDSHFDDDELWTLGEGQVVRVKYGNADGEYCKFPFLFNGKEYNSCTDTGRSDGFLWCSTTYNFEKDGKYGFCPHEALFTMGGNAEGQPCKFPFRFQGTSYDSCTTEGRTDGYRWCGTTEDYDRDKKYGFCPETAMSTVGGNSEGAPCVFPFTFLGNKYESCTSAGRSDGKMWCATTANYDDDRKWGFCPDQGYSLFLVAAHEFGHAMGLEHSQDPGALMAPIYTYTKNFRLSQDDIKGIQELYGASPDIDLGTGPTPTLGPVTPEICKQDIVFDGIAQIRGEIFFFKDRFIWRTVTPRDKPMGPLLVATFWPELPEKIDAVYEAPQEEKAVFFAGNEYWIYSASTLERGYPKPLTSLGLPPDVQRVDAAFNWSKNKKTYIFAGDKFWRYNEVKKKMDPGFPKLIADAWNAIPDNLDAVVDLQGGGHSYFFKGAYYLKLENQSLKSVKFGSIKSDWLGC
Assay: TPL (thiopeptolide) assay, MMP-2
Format: biochemical
Details: read-out: IC50 MMP-2
Experimental: The assays that can be used to evaluate the biological activity of various compounds for inhibiting MMPs are well-known and routinely used by those skilled in the art. […] Thiopeptolide substrates show virtually no decomposition or hydrolysis in the absence of a matrix metalloproteinase enzyme. […] The change in absorbance at […] is monitored on a Thermo Max microplate reader (Molecular Devices, Menlo Park, Calif.) at room temperature (22° C.). […]
pIC50: −log10 of the molar value. Counter-ions that a name gives are not always drawn.
The following compounds are shown together with reported pIC50 values.

Reference set (4 entries):
>>> result("O=C(O)c1ccc(CNC(=O)c2cc(-c3ccc(OC(F)(F)F)cc3)cs2)cc1 [Example 5]")
"< 4.52"
>>> result("COc1ccc(CC#Cc2ccc3c(c2)c(=O)n(Cc2ccc(C(=O)O)cc2)c(=O)n3C)cc1 [Example 2]")
"< 4.00"
>>> result("COc1ccc(CC#Cc2ccc3ncn(Cc4ccc(C(=O)O)cc4)c(=O)c3c2)cc1 [Example 1]")
"< 4.00"
>>> result("COc1cccc(COC(=O)c2cc3c(=O)n(Cc4ccc(-c5nn[nH]n5)cc4)c(=O)[nH]c3s2)c1 [Example 3]")
"< 4.00"

Okay, next one:
## Task Given the compound O=C(O)C[C@@H](NC(=O)c1cc(-c2ccc(-c3ccncc3)cc2)cs1)c1ccccc1 [Example 6, hydrochloride] , what is its reported pIC50?
## Result < 6.41

---

Target: MMP-3 (Homo sapiens)
Sequence (P08254 100-477): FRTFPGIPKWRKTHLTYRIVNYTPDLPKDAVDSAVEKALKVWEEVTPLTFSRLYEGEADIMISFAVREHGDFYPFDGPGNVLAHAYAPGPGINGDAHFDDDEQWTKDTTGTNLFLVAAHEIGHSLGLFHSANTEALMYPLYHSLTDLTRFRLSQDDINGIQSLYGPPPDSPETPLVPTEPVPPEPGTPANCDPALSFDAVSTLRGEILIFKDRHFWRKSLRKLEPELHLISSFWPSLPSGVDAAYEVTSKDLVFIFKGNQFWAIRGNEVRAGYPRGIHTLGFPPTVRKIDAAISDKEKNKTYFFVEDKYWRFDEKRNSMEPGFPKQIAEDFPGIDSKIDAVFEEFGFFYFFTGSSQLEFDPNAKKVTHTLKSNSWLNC
Assay: TPL (thiopeptolide) assay, MMP-3
Type: biochemical
Conditions: unit inferred, read-out: Activities measured by TPL assays, MMP-3
Procedure: The assays that can be used to evaluate the biological activity of various compounds for inhibiting MMPs are well-known and routinely used by those skilled in the art. […] Thiopeptolide substrates show virtually no decomposition or hydrolysis in the absence of a matrix metalloproteinase enzyme. […] The change in absorbance at […] is monitored on a Thermo Max microplate reader (Molecular Devices, Menlo Park, Calif.) at room temperature (22° C.). […]
outcome-measure: IC50

## Task Given the molecule O=C(OCc1ccccc1)c1ccc2[nH]c(=O)n(Cc3ccccc3)c(=O)c2c1 [Example 4] , what is its reported IC50?
## Result > 30 µM

---

The following compounds are shown together with reported pIC50 values.
Molecular target: UniProt:P39900
Experiment: TPL (thiopeptolide) assay, MMP-12 (without and with AH)
Assay type: biochemical
Details: in presence of acetohydroxamic acid (+AH); read-out: IC50 MMP12 (+AH)
Procedure: The assays that can be used to evaluate the biological activity of various compounds for inhibiting MMPs are well-known and routinely used by those skilled in the art. […] Thiopeptolide substrates show virtually no decomposition or hydrolysis in the absence of a matrix metalloproteinase enzyme. […] The change in absorbance at […] is monitored on a Thermo Max microplate reader (Molecular Devices, Menlo Park, Calif.) at room temperature (22° C.). […]
Where a name gives a salt, the structure may show the parent alone.
Remember the convention: pIC50 equals -log10 of concentration in molar.

Reference set (3 entries):
>>> recorded_number("O=C(O)c1ccc(CNC(=O)c2cc(-c3ccc(OC(F)(F)F)cc3)cs2)cc1")
7.92
>>> recorded_number("O=C(O)C[C@@H](NC(=O)c1cc(-c2ccc(-c3ccncc3)cc2)cs1)c1ccccc1 [Example 6, hydrochloride]")
8.40
>>> recorded_number("CN1c2ccc(C3CN(Cc4ccccc4)C(=O)CO3)cc2CS1(=O)=O (stereo not shown)")
6.57

Okay, next one:
## Task Given the compound O=C(NC[C@H]1CC[C@H](C(=O)O)CC1)c1cc(-c2ccc(-c3ccncc3)cc2)ns1 [Example 8, Potassium Salt] , what is its reported pIC50?
## Result 7.82

---

Target: MMP-13 (Homo sapiens)
Experiment: TPL (thiopeptolide) assay, MMP-13 (without and with AH)
Type: biochemical
Details: TPL assay; unit inferred; read-out: Activities measured by TPL assays, MMP-13
outcome-measure: IC50 (nM)
# number only, unit nM dropped from output

## Task Given the compound O=C(OCc1ccccc1)c1ccc2[nH]c(=O)n(Cc3ccccc3)c(=O)c2c1 , what is its reported IC50?
## Result 29.5

---

Target: MMP-14 (Homo sapiens)
Assay: TPL (thiopeptolide) assay, MMP-14
Type: biochemical
Settings: unit inferred, read-out: Activities measured by TPL assays, MMP-14
pIC50: −log10 of the molar value.
outcome-measure: pIC50

## Task Given the compound O=C(OCc1ccccc1)c1ccc2[nH]c(=O)n(Cc3ccccc3)c(=O)c2c1 , what is its reported pIC50?
## Result < 4.00

---

Molecular target: MMP-14 (Homo sapiens, UniProt P50281)
Assay: TPL (thiopeptolide) assay, MMP-14
Assay type: biochemical
Conditions: read-out: IC50 MMP-14
outcome-measure: IC50

Reference set (3 entries):
>>> result("COc1cccc(COC(=O)c2cc3c(=O)n(Cc4ccc(-c5nn[nH]n5)cc4)c(=O)[nH]c3s2)c1 [Example 3]")
"> 100 µM"
>>> result("COc1ccc(CC#Cc2ccc3ncn(Cc4ccc(C(=O)O)cc4)c(=O)c3c2)cc1 [Example 1]")
"> 100 µM"
>>> result("COc1ccc(CC#Cc2ccc3c(c2)c(=O)n(Cc2ccc(C(=O)O)cc2)c(=O)n3C)cc1 [Example 2]")
"> 100 µM"

Okay, next one:
## Task Given the molecule O=C(O)c1ccc(CNC(=O)c2cc(-c3ccc(OC(F)(F)F)cc3)cs2)cc1 [Example 5] , what is its reported IC50?
## Result > 30 µM

---

Target: MMP-12 (Homo sapiens)
Sequence (P39900 106-470): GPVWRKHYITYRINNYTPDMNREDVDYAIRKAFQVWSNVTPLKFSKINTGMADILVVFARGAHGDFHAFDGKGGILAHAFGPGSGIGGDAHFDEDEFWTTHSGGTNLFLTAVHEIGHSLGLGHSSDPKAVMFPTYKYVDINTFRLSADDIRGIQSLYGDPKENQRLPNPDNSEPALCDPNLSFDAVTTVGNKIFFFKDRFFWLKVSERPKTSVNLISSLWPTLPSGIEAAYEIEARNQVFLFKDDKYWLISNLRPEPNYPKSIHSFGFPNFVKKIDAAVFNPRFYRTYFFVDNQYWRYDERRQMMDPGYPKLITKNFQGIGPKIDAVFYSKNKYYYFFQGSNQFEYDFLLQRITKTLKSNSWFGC
Experiment: TPL (thiopeptolide) assay, MMP-12 (without and with AH)
Format: biochemical
Settings: TPL assay, without AH; read-out: IC50 MMP-12
Experimental: The assays that can be used to evaluate the biological activity of various compounds for inhibiting MMPs are well-known and routinely used by those skilled in the art. […] Thiopeptolide substrates show virtually no decomposition or hydrolysis in the absence of a matrix metalloproteinase enzyme. […] The change in absorbance at […] is monitored on a Thermo Max microplate reader (Molecular Devices, Menlo Park, Calif.) at room temperature (22° C.). […]
Where a name gives a salt, the structure may show the parent alone.
outcome-measure: IC50 (µM)
# number only, unit µM dropped from output

Reference set (3 entries):
>>> recorded_number("COc1cccc(COC(=O)c2cc3c(=O)n(Cc4ccc(-c5nn[nH]n5)cc4)c(=O)[nH]c3s2)c1")
3.4
>>> recorded_number("O=C(O)C[C@@H](NC(=O)c1cc(-c2ccc(-c3ccncc3)cc2)cs1)c1ccccc1 [Example 6, hydrochloride]")
0.014
>>> recorded_number("O=C(NC[C@H]1CC[C@H](C(=O)O)CC1)c1cc(-c2ccc(-c3ccncc3)cc2)ns1 [Example 8, Potassium Salt]")
0.57

## Task Given the compound CN1c2ccc(C3CN(Cc4ccccc4)C(=O)CO3)cc2CS1(=O)=O (stereo not shown) , what is its reported IC50?
## Result 17

---

Target: MMP-9 (Homo sapiens, UniProt P14780)
Sequence (P14780 94-707): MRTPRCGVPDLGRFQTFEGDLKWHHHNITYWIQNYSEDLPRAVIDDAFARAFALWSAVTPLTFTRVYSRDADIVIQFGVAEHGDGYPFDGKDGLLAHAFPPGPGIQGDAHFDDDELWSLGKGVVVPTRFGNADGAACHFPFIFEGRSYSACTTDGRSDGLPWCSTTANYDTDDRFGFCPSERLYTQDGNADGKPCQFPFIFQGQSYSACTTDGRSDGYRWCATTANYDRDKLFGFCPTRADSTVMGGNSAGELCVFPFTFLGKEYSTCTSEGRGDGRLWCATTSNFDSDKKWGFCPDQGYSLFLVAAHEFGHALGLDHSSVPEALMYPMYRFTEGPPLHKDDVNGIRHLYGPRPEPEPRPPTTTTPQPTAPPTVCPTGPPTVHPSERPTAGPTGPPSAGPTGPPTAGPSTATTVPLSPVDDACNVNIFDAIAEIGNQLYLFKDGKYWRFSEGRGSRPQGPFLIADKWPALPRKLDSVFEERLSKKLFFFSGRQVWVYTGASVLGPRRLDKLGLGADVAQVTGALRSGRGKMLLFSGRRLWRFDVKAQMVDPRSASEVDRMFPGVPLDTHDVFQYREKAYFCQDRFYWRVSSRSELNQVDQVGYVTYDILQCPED
Experiment: TPL (thiopeptolide) assay, MMP-9
Assay type: biochemical
Settings: unit inferred, read-out: Activities measured by TPL assays, MMP-9
pIC50: −log10 of the molar value.
outcome-measure: pIC50

## Task Given the molecule O=C(OCc1ccccc1)c1ccc2[nH]c(=O)n(Cc3ccccc3)c(=O)c2c1 [Example 4] , what is its reported pIC50?
## Result < 4.00

---

Biological target: MMP-1 (Homo sapiens, UniProt P03956)
Sequence (P03956 100-469): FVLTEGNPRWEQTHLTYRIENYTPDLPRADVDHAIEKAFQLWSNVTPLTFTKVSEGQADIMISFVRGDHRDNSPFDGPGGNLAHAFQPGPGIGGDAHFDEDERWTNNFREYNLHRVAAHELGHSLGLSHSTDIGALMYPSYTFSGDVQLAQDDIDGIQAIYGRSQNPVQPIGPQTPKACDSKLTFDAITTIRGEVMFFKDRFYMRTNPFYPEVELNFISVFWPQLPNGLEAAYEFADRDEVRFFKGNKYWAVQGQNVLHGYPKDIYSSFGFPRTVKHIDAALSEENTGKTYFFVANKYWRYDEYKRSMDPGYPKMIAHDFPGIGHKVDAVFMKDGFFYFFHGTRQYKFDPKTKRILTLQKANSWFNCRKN
Assay: TPL (thiopeptolide) assay, MMP-1
Type: biochemical
Details: read-out: IC50 MMP-1
Procedure: The assays that can be used to evaluate the biological activity of various compounds for inhibiting MMPs are well-known and routinely used by those skilled in the art. […] Thiopeptolide substrates show virtually no decomposition or hydrolysis in the absence of a matrix metalloproteinase enzyme. […] The change in absorbance at […] is monitored on a Thermo Max microplate reader (Molecular Devices, Menlo Park, Calif.) at room temperature (22° C.). […]
pIC50: −log10 of the molar value. Where a name gives a salt, the structure may show the parent alone.
outcome-measure: pIC50

>>> result("O=C(O)C[C@@H](NC(=O)c1cc(-c2ccc(-c3ccncc3)cc2)cs1)c1ccccc1 [Example 6, hydrochloride]")
"< 4.00"
>>> result("COc1cccc(COC(=O)c2cc3c(=O)n(Cc4ccc(-c5nn[nH]n5)cc4)c(=O)[nH]c3s2)c1")
"< 4.00"
>>> result("O=C(O)c1ccc(CNC(=O)c2cc(-c3ccc(OC(F)(F)F)cc3)cs2)cc1")
"< 4.52"
>>> result("COc1ccc(CC#Cc2ccc3c(c2)c(=O)n(Cc2ccc(C(=O)O)cc2)c(=O)n3C)cc1")
"< 4.00"

Okay, next one:
## Task Given the molecule COc1ccc(CC#Cc2ccc3ncn(Cc4ccc(C(=O)O)cc4)c(=O)c3c2)cc1 , what is its reported pIC50?
## Result < 4.00
